- assaySystem: phosphorylation levels of ERK1/2 in AsPC-1 (homozygous KRAS-G12D) cells (Homo sapiens, UniProt P01116, G12D)
- Sequence (P01116 1-186 G12D): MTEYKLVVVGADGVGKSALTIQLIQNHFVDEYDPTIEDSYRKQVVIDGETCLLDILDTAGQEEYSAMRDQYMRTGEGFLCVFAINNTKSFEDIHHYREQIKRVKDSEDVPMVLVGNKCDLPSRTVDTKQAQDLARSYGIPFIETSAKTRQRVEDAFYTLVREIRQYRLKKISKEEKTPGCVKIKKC
- assaySummary: Cellular phospho-ERK assay in AsPC-1 cells (Alpha Screen), assay medium without fetal bovine serum
- settings: phospho-ERK AlphaScreen, 18 h
pEC50: −log10 of the molar value. *1 amine or outer side, *2 acyl side, *3 side chain or, on linkers, in order; H or OH if unused. Where a SMILES comes first, the peptide text is derived from it. Bridges are numbered along the chain shown (N, C = ends). [ ]: non-standard residue; d: D form. Phe(4-guanidino) = N=C(N)Nc1ccc(C[C@H](N)C(=O)O)cc1; X19 = C[C@H](c1ccccc1)[C@@H](C(=O)[*:2])N(C)[*:1]; Ala(pyrimidin-5-yl) = N[C@@H](Cc1cncnc1)C(=O)O; Phe(3-COOH) = N[C@@H](Cc1cccc(C(=O)O)c1)C(=O)O; NMe3Pal(6-Me) = CN[C@@H](Cc1ccc(C)nc1)C(=O)O; NMePhe(3-Me) = CN[C@@H](Cc1cccc(C)c1)C(=O)O; NMePhe(4-F) = CN[C@@H](Cc1ccc(F)cc1)C(=O)O; 3Pal(6-OMe) = COc1ccc(C[C@H](N)C(=O)O)cn1; X25 = O=C([C@H](Cc1ccc(F)nc1)N[*:1])[*:2]; NMeArg(Me) = CNC(=N)NCCC[C@H](NC)C(=O)O; X11 = CC(C)(F)CC[C@H](N[*:1])C(=O)[*:2]; X13 = O=C([C@H](Cc1ccncc1F)N[*:1])[*:2]; 1Nal = N[C@@H](Cc1cccc2ccccc12)C(=O)O; NHCH2CH2SCH2CO = O=C(CSCCN[*:1])[*:2]; Phe(2-F) = N[C@@H](Cc1ccccc1F)C(=O)O; NMe3Pal = CN[C@@H](Cc1cccnc1)C(=O)O; X1 = O=C(C12CC(CN[*:1])(C1)C2)[*:2]; NMeAad = CN[C@@H](CCCC(=O)O)C(=O)O; Ala(cPr) = N[C@@H](CC1CC1)C(=O)O; NMeF = CN[C@@H](Cc1ccccc1)C(=O)O; PhLac = O=C(O)[C@@H](O)Cc1ccccc1; 3Pal = N[C@@H](Cc1cccnc1)C(=O)O; Gly(N(CH2)3NH2) = NCCCNCC(=O)O; Ahp(2) = CCCCC[C@H](N)C(=O)O; Cba = N[C@@H](CC1CCC1)C(=O)O; hLeu = CC(C)CC[C@H](N)C(=O)O; αMeC = C[C@](N)(CS)C(=O)O; NMeA = CN[C@@H](C)C(=O)O; Nle = CCCC[C@H](N)C(=O)O
Parameter: pEC50. Scope: all listed entries.

Below, each entry is followed by its recorded pEC50 result.
molecule	pEC50
CCCC[C@@H]1NC(=O)[C@H](Cc2cncnc2)NC(=O)[C@H](C)N(C)C(=O)[C@H](Cc2ccccc2)OC(=O)C23CC(CNC(=O)[C@H](Cc4ccc(F)cc4)N(C)C(=O)[C@H](CCCC)NC(=O)[C@H](Cc4ccccc4F)NC1=O)(C2)C3 [compound 173] (cyclo([NMeA][Ala(pyrimidin-5-yl)][Nle][Phe(2-F)][Nle][NMePhe(4-F)][X1][PhLac]))	6.00
CCCCC[C@@H]1NC(=O)[C@H](Cc2ccc(OC)cc2)NC(=O)[C@H](CC2CCC2)NC(=O)[C@H](Cc2ccc(NC(=N)N)cc2)NC(=O)[C@H](CCCNC(=N)NC)N(C)C(=O)[C@H](Cc2ccccc2)NC(=O)CSC[C@@](C)(C(N)=O)NC(=O)[C@H](Cc2ccccc2)N(C)C1=O [compound 380] ({CH2CO}-F[NMeArg(Me)][Phe(4-guanidino)][Cba]Y(Me)[Ahp(2)][NMeF][αMeC]-NH2; thioether N-8)	< 4.29
CCCC[C@@H]1NC(=O)[C@H](CCCCN)NC(=O)[C@H](CCCNC(=N)N)NC(=O)[C@H](Cc2cccc3ccccc23)NC(=O)CSCCNC(=O)[C@H](Cc2ccccc2)N(C)C(=O)[C@H](CCCC)NC(=O)[C@H](Cc2cccc(C(=O)O)c2)NC1=O [compound 197] (cyclo([1Nal]RK[Nle][Phe(3-COOH)][Nle][NMeF][NHCH2CH2SCH2CO]))	< 4.29
CCCCC[C@@H]1NC(=O)[C@H](Cc2ccc(OC)cc2)NC(=O)[C@H](CC2CCC2)NC(=O)[C@H](Cc2ccc(OC)nc2)NC(=O)[C@H](CCCNC(=N)N)NC(=O)[C@H](Cc2ccccc2)NC(=O)CSC[C@@](C)(C(N)=O)NC(=O)[C@H](Cc2ccccc2)N(C)C1=O [compound 365] ({CH2CO}-FR[3Pal(6-OMe)][Cba]Y(Me)[Ahp(2)][NMeF][αMeC]-NH2; thioether N-8)	< 4.29
Cc1cccc(C[C@H]2C(=O)NCC34CC(C3)(C4)C(=O)O[C@@H](Cc3ccccc3)C(=O)N(C)[C@@H](C)C(=O)N[C@@H](Cc3cncnc3)C(=O)N[C@@H](CC3CC3)C(=O)N[C@@H](Cc3ccncc3F)C(=O)N[C@@H](CCC(C)C)C(=O)N2C)c1 [compound 279] (cyclo([Ala(cPr)][X13][hLeu][NMePhe(3-Me)][X1][PhLac][NMeA][Ala(pyrimidin-5-yl)]))	5.40

Consider the molecule shown here: C[C@H](c1ccccc1)[C@H]1C(=O)NCC23CC(C2)(C3)C(=O)O[C@@H](Cc2ccccc2)C(=O)N(C)[C@@H](C)C(=O)N[C@@H](Cc2cncnc2)C(=O)N[C@@H](CC2CC2)C(=O)N[C@@H](Cc2ccccc2F)C(=O)N[C@@H](CCC(C)(C)F)C(=O)N1C [compound 341] (cyclo([Ala(cPr)][Phe(2-F)][X11][X19][X1][PhLac][NMeA][Ala(pyrimidin-5-yl)])) What is its recorded pEC50?
< 4.29

Consider the molecule shown here: CCCC[C@@H]1NC(=O)[C@H](Cc2cccnc2)NC(=O)[C@H](CCCC(=O)N(C)C)N(C)C(=O)[C@H](Cc2ccccc2)OC(=O)C23CC(CNC(=O)[C@H](Cc4cccnc4)N(C)C(=O)[C@H](CCCC)NC(=O)[C@H](Cc4ccccc4F)NC1=O)(C2)C3 [compound 408] (cyclo([3Pal][Nle][Phe(2-F)][Nle][NMe3Pal][X1][PhLac][NMeAad](NMe2))) What is its recorded pEC50?
< 4.29

Consider the molecule shown here: CCCC[C@@H]1NC(=O)[C@H](Cc2cccnc2)NC(=O)[C@H](C)N(C)C(=O)[C@H](Cc2ccc(F)nc2)NC(=O)C23CC(CNC(=O)[C@H](Cc4cccnc4)N(C)C(=O)[C@H](CCCC)NC(=O)[C@H](Cc4ccccc4F)NC1=O)(C2)C3 [compound 165] (cyclo([3Pal][Nle][Phe(2-F)][Nle][NMe3Pal][X1][X25][NMeA])) What is its recorded pEC50?
< 4.29

Consider the molecule shown here: CCCC[C@@H]1NC(=O)[C@H](Cc2cccnc2)NC(=O)[C@H](C)N(C)C(=O)[C@H](Cc2ccccc2)OC(=O)C23CC(CNC(=O)[C@H](Cc4ccc(C)nc4)N(C)C(=O)[C@H](CCCC)NC(=O)[C@H](Cc4ccccc4F)NC1=O)(C2)C3 [compound 402] (cyclo([3Pal][Nle][Phe(2-F)][Nle][NMe3Pal(6-Me)][X1][PhLac][NMeA])) What is its recorded pEC50?
5.00

Consider the molecule shown here: CCCCC[C@@H]1NC(=O)[C@H](Cc2ccc(OC)cc2)NC(=O)[C@H](CC2CCC2)NC(=O)[C@H](Cc2ccc(NC(=N)N)cc2)NC(=O)CN(CCCN)C(=O)[C@H](Cc2ccccc2)NC(=O)CSC[C@@](C)(C(N)=O)NC(=O)[C@H](Cc2ccccc2)N(C)C1=O [compound 388] ({CH2CO}-F[Gly(N(CH2)3NH2)][Phe(4-guanidino)][Cba]Y(Me)[Ahp(2)][NMeF][αMeC]-NH2; thioether N-8) What is its recorded pEC50?
< 4.29

Consider the molecule shown here: CCCCC[C@@H]1NC(=O)[C@H](Cc2ccc(OC)cc2)NC(=O)[C@H](CC2CCC2)NC(=O)[C@H](Cc2ccc(-c3cccnc3N)cc2)NC(=O)[C@H](CCCNC(=N)N)NC(=O)[C@H](Cc2ccccc2)NC(=O)CSC[C@@](C)(C(N)=O)NC(=O)[C@H](Cc2ccccc2)N(C)C1=O [compound 390] What is its recorded pEC50?
< 4.29

====

- assaySystem: phosphorylation levels of ERK1/2 in AsPC-1 (homozygous KRAS-G12D) cells (Homo sapiens, UniProt P01116, G12D)
- assaySummary: Cellular phospho-ERK assay in AsPC-1 cells (Alpha Screen), assay medium without fetal bovine serum;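 also: signal taken as phospho-ERK over total ERK per well, both detected in one multiplex bead assay, EC50 from four-parameter logistic fit of dose-response curves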
- settings: phospho-ERK AlphaScreen, 18 h
*1 amine or outer side, *2 acyl side, *3 side chain or, on linkers, in order; H or OH if unused. Where a SMILES comes first, the peptide text is derived from it. [ ]: non-standard residue; d: D form. Ala(pyrimidin-5-yl) = N[C@@H](Cc1cncnc1)C(=O)O; X7 = C[C@H](N[*:1])C12CC(C(=O)[*:2])(C1)C2; X30 = O=C([C@H](Cc1ncccc1F)N[*:1])[*:2]; Phe(2-F) = N[C@@H](Cc1ccccc1F)C(=O)O; NMe3Pal = CN[C@@H](Cc1cccnc1)C(=O)O; X1 = O=C(C12CC(CN[*:1])(C1)C2)[*:2]; NMeF = CN[C@@H](Cc1ccccc1)C(=O)O; PhLac = O=C(O)[C@@H](O)Cc1ccccc1; NMeA = CN[C@@H](C)C(=O)O; Nle = CCCC[C@H](N)C(=O)O
measuredParameter: pEC50
Scale for pEC50: -log10 of concentration given in mol/L; no unit attached.

compound	observedValue
CCCC[C@@H]1NC(=O)[C@H](Cc2cncnc2)NC(=O)[C@H](C)N(C)C(=O)[C@H](Cc2ccccc2)OC(=O)C23CC(CNC(=O)[C@H](Cc4ccccc4)N(C)C(=O)[C@H](CCCC)NC(=O)[C@H](Cc4ncccc4F)NC1=O)(C2)C3 [compound 229] (cyclo([NMeA][Ala(pyrimidin-5-yl)][Nle][X30][Nle][NMeF][X1][PhLac]))	4.31

Consider the compound shown here: CCCC[C@@H]1NC(=O)[C@H](Cc2cncnc2)NC(=O)[C@H](C)N(C)C(=O)[C@H](Cc2ccccc2)OC(=O)C23CC(C2)(C3)[C@H](C)NC(=O)[C@H](Cc2cccnc2)N(C)C(=O)[C@H](CCCC)NC(=O)[C@H](Cc2ccccc2F)NC1=O [compound 121] (cyclo([NMe3Pal][X7][PhLac][NMeA][Ala(pyrimidin-5-yl)][Nle][Phe(2-F)][Nle])) What is its recorded pEC50?
4.63
